- system: Thrombin (Homo sapiens, UniProt P00734)
- Construct: purchased R&D
- assay overview: Kinetic progress curves (kapp, K1, KI*, mechanism)
- Assay type: biochemical
- test context: Thrombin K1, apparent equilibrium constant of the first step of slow-binding; mean ± SD
pKi: −log10 of the molar value.
Here the recorded pKi is given for each entry.
experimental readout: pKi

molecule	experimental readout	recorded value
C#CCCCOC(=O)NC(Cc1ccc(NC(=N)N)cc1)P(=O)(Oc1ccc(NC(C)=O)cc1)Oc1ccc(NC(C)=O)cc1 (centres unmarked) [35b]	pKi	4.49
C#CCCCOC(=O)NC(Cc1ccc(NC(=N)N)cc1)P(=O)(Oc1ccccc1)Oc1ccccc1 (centres unmarked) [34b]	pKi	3.87
C#CCCCOC(=O)NC(CCCNC(=N)N)P(=O)(Oc1ccc(Cl)cc1)Oc1ccc(Cl)cc1 (centres unmarked) [33b]	pKi	5.38
C#CCCCOC(=O)NC(CCCNC(=N)N)P(=O)(Oc1ccccc1)Oc1ccccc1 (centres unmarked) [32b]	pKi	4.65
C#CCCCOC(=O)NC(Cc1ccc(NC(=N)N)cc1)P(=O)(Oc1ccc(Cl)cc1)Oc1ccc(Cl)cc1 (centres unmarked) [36b]	pKi	5.04

----------
# key: entry, value: pIC50
- system: TLCK-treated pancreatic bovine chymotrypsin (Bos taurus)
- Construct: TLCK-treated pancreatic bovine chymotrypsin (Sigma-Aldrich); purchased Sigma-Aldrich; host or cells: bovine pancreas
- assay overview: IC50 determination, spectrophotometric protease assay
- Type: biochemical
- test context: read-out: ChTryp IC50; desthiobiotin probes; 15 min preincubation at 37°C; mean ± SD
pIC50: −log10 of the molar value.
experimental readout: pIC50

molecule	system	recorded value
C[C@@H]1NC(=O)N[C@@H]1CCCCCC(=O)NCCOCCOCCOCCn1cc(CCCOC(=O)NC(c2ccc(NC(=N)N)cc2)P(=O)(Oc2ccccc2)Oc2ccccc2)nn1 (stereo partly drawn) [55b]	TLCK-treated pancreatic bovine chymotrypsin (Bos taurus)	< 5.00
C[C@@H]1NC(=O)N[C@@H]1CCCCCC(=O)NCCOCCOCCOCCn1cc(CCCOC(=O)NC(CCCNC(=N)N)P(=O)(Oc2ccccc2)Oc2ccccc2)nn1 (stereo partly drawn) [45b]	TLCK-treated pancreatic bovine chymotrypsin (Bos taurus)	< 5.00
C[C@@H]1NC(=O)N[C@@H]1CCCCCC(=O)NCCOCCOCCOCCn1cc(CCCOC(=O)NC(CCCNC(=N)N)P(=O)(Oc2ccc(Cl)cc2)Oc2ccc(Cl)cc2)nn1 (stereo partly drawn) [46b]	TLCK-treated pancreatic bovine chymotrypsin (Bos taurus)	< 5.00

----------
Measured IC50 values are reported for all entries that follow.
- system: uPA (recombinant urokinase plasminogen activator) (Homo sapiens, UniProt P00749)
- Construct: purchased HYPHEN BioMed
- assay overview: IC50 determination, spectrophotometric protease assay
- Format: biochemical
- test context: read-out: uPA IC50; desthiobiotin probes; 15 min preincubation at 37°C; mean ± SD

compound	qualifier	IC50 / µM
CC(=O)Nc1ccc(OP(=O)(Oc2ccc(NC(C)=O)cc2)C(CCCCN)NC(=O)OCCCc2cn(CCOCCOCCOCCNC(=O)CCCCC[C@H]3NC(=O)N[C@H]3C)nn2)cc1 (stereo partly shown) [49b]	=	6.75
C[C@@H]1NC(=O)N[C@@H]1CCCCCC(=O)NCCOCCOCCOCCn1cc(CCCOC(=O)NC(CCCCN)P(=O)(Oc2ccccc2)Oc2ccccc2)nn1 (stereo partly shown) [47b]	=	4.62
C[C@@H]1NC(=O)N[C@@H]1CCCCCC(=O)NCCOCCOCCOCCn1cc(CCCOC(=O)NC(CCCNC(=N)N)P(=O)(Oc2ccc(Cl)cc2)Oc2ccc(Cl)cc2)nn1 (stereo partly shown) [46b]	=	0.42
C[C@@H]1NC(=O)N[C@@H]1CCCCCC(=O)NCCOCCOCCOCCn1cc(CCCOC(=O)NC(c2ccc(NC(=N)N)cc2)P(=O)(Oc2ccccc2)Oc2ccccc2)nn1 (stereo partly shown) [55b]	=	2.22
CC(=O)Nc1ccc(OP(=O)(Oc2ccc(NC(C)=O)cc2)C(NC(=O)OCCCc2cn(CCOCCOCCOCCNC(=O)CCCCC[C@H]3NC(=O)N[C@H]3C)nn2)c2ccc(NC(=N)N)cc2)cc1 (stereo partly shown) [56b]	=	5.19
C[C@@H]1NC(=O)N[C@@H]1CCCCCC(=O)NCCOCCOCCOCCn1cc(CCCOC(=O)NC(c2ccc(NC(=N)N)cc2)P(=O)(Oc2ccc(Cl)cc2)Oc2ccc(Cl)cc2)nn1 (stereo partly shown) [57b]	=	0.16
C[C@@H]1NC(=O)N[C@@H]1CCCCCC(=O)NCCOCCOCCOCCn1cc(CCCOC(=O)NC(CCCNC(=N)N)P(=O)(Oc2ccccc2)Oc2ccccc2)nn1 (stereo partly shown) [45b]	>	10

The values you see were collected from paper PMC9849758.
